- ASSAY_SYSTEM: Sodium channel alpha subunits; brain (Types I, II, III) (Rattus norvegicus, UniProt P04775+P04774+P08104)
- METHOD_DESCRIPTION: Displacement of [3H]BTX from sodium channel of rat cerebral cortex synaptosomes
- Format: subcellular
MEASURED_ATTRIBUTE: Ki

Return value of Ki for input C[C@@H](CN1CCC2(C)c3ccc(O)cc3C[C@H]1C2(C)C)Oc1ccccc1 , no commentary. 1.53 µM

Return value of Ki for input CC12CCN(CCOCc3ccccc3)[C@H](Cc3c(O)cccc31)C2(C)C , no commentary. 0.02 µM

Return value of Ki for input CO[C@H](C)CN1CCC2(C)c3cccc(O)c3C[C@@H]1C2(C)C , no commentary. 3.31 µM

Return value of Ki for input C[C@@H](CN1CCC2(C)c3cccc(O)c3C[C@H]1C2(C)C)OCc1ccccc1 , no commentary. 1.33 µM

Return value of Ki for input CC1[C@H]2Cc3c(O)cccc3C1(C)CCN2C[C@H](C)OCc1ccccc1 (stereo not given in full) , no commentary. 0.054 µM

* * *

- ASSAY_SYSTEM: Sodium channel alpha subunits; brain (Types I, II, III) (Rattus norvegicus, UniProt P04775+P04774+P08104)
- METHOD_DESCRIPTION: Displacement of [3H]BTX from sodium channel of rat cerebral cortex synaptosomes
- Assay type: subcellular
Each record's class is read off its Ki using these ranges: range A (below 200 nM), range B (200 nM to below 1000 nM), range C (1000 nM or more)

Determine which band this molecule sits in: COc1ccc2c(c1)[C@]13CCCC[C@@H]1[C@H](C2)N(C)CC3 [DEXTROMETHORPHAN] range C

Determine which band this molecule sits in: CO[C@H](C)CN1CCC2(C)c3cccc(O)c3C[C@H]1C2(C)C range C

Determine which band this molecule sits in: C[C@H](CN1CCC2(C)c3ccc(O)cc3C[C@@H]1C2(C)C)OCc1ccccc1 range B

Determine which band this molecule sits in: COC(C)CN1CCC2(C)c3cc(O)ccc3C[C@@H]1C2(C)C (stereo partly specified) range C

Determine which band this molecule sits in: C[C@@H](CN1CCC2(C)c3cccc(O)c3C[C@@H]1C2(C)C)OCc1ccccc1 range A

Determine which band this molecule sits in: CC12CCN(CCc3ccccc3)[C@@H](Cc3cc(O)ccc31)C2(C)C range C

Determine which band this molecule sits in: C[C@@H](CN1CCC2(C)c3ccc(O)cc3C[C@@H]1C2(C)C)Oc1ccccc1 range A

Determine which band this molecule sits in: Cc1cccc(C)c1OCC(C)N (stereo unspecified) [MEXILETINE] range C

Determine which band this molecule sits in: C[C@H](CN1CCC2(C)c3ccc(O)cc3C[C@H]1C2(C)C)OCc1ccccc1 range C

Determine which band this molecule sits in: COC(C)CN1CCC2(C)c3ccc(O)cc3C[C@@H]1C2(C)C (stereo partly specified) range C

Determine which band this molecule sits in: CC1[C@H]2Cc3c(O)cccc3C1(C)CCN2C[C@@H](C)OCc1ccccc1 (stereo partly specified) range A

Determine which band this molecule sits in: C[C@@H](CN1CCC2(C)c3cccc(O)c3C[C@@H]1C2(C)C)OCC1CCCCC1 range B

Determine which band this molecule sits in: COC(C)CN1CCC2(C)c3c(O)cccc3C[C@@H]1C2(C)C (stereo partly specified) range C

Determine which band this molecule sits in: C[C@H](CN1CCC2(C)c3ccc(O)cc3C[C@@H]1C2(C)C)Oc1ccccc1 range B

Determine which band this molecule sits in: CO[C@@H](C)CN1CCC2(C)c3cccc(O)c3C[C@@H]1C2(C)C range B

Determine which band this molecule sits in: C[C@H](CN1CCC2(C)c3cccc(O)c3C[C@@H]1C2(C)C)OCc1ccccc1 range A

Determine which band this molecule sits in: C[C@H](CN1CCC2(C)c3cccc(O)c3C[C@@H]1C2(C)C)OCC1CCCCC1 range B

Determine which band this molecule sits in: C[C@H](CN1CCC2(C)c3cccc(O)c3C[C@H]1C2(C)C)OCc1ccccc1 range C

Determine which band this molecule sits in: CC(CN1CCC2(C)C[C@@H]1Cc1c(O)cccc12)OCc1ccccc1 (stereo partly specified) range A

Determine which band this molecule sits in: CO[C@@H](C)CN1CCC2(C)c3ccccc3C[C@@H]1C2(C)C range C
